# SYSTEM: T1, human MR LBD (residues 727-984) containing a C808S mutation, 6xHis-GST fusion protein (;human, UniProt P08235 727-984)
# T1 chain: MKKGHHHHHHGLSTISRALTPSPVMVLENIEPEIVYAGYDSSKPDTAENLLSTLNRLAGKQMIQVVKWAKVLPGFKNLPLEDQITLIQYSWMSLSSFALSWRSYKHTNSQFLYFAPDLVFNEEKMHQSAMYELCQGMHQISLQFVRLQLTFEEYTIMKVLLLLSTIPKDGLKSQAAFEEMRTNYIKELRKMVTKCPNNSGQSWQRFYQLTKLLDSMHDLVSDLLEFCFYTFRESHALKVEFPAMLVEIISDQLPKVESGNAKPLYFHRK
# PROTOCOL NOTES: AlphaScreen peptide competition; corticosterone
PROPERTY MEASURED: IC50 (nM)

BINDER: AEEPSLLKKLLLAPA [unlabeled PGC1α-1 peptide]
RECORDED MEASUREMENT: 900
--
BINDER: RRPCSELLKYLTTND [unlabeled PGC1α-2 peptide]
RECORDED MEASUREMENT: 1100

Entry source: patent US20070111265A1
